System tested: T1, soluble monomeric FcγRIIIA (extracellular region joined to linker-AVITAG), allele not stated (human, UniProt P08637 17-208)
T1 construct: extracellular domain; also called FcRIIIA; CD16A; not shown: linker-AVITAG
T1 sequence (P08637 17-208): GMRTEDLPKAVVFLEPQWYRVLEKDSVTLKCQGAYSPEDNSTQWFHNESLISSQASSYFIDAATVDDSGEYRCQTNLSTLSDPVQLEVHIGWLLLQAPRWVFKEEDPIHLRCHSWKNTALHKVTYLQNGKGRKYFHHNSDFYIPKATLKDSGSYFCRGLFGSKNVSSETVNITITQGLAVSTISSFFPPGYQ
Test name: ELISA
The entries below come with measured Binding to FcγRIIIA (ELISA) values attached.
A number alone suffices; assume fold increase.

Binder | Numeric result
IgG1 Fc mutant K290E, V369A, T393A, P396L (antibody) heavy: ASTKGPSVFPLAPSSKSTSGGTAALGCLVKDYFPEPVTVSWNSGALTSGVHTFPAVLQSSGLYSLSSVVTVPSSSLGTQTYICNVNHKPSNTKVDKKVEPKSCDKTHTCPPCPAPELLGGPSVFLFPPKPKDTLMISRTPEVTCVVVDVSHEDPEVKFNWYVDGVEVHNAKTEPREEQYNSTYRVVSVLTVLHQDWLNGKEYKCKVSNKALPAPIEKTISKAKGQPREPQVYTLPPSRDELTKNQVSLTCLAKGFYPSDIAVEWESNGQPENNYKATPLVLDSDGSFFLYSKLTVDKSRWQQGNVFSCSVMHEALHNHYTQKSLSLSPGK | 1.3

Okay, next one:
Entry IgG1 Fc mutant K246N, Q419R, P396L (antibody) heavy: ASTKGPSVFPLAPSSKSTSGGTAALGCLVKDYFPEPVTVSWNSGALTSGVHTFPAVLQSSGLYSLSSVVTVPSSSLGTQTYICNVNHKPSNTKVDKKVEPKSCDKTHTCPPCPAPELLGGPSVFLFPPNPKDTLMISRTPEVTCVVVDVSHEDPEVKFNWYVDGVEVHNAKTKPREEQYNSTYRVVSVLTVLHQDWLNGKEYKCKVSNKALPAPIEKTISKAKGQPREPQVYTLPPSRDELTKNQVSLTCLVKGFYPSDIAVEWESNGQPENNYKTTPLVLDSDGSFFLYSKLTVDKSRWQRGNVFSCSVMHEALHNHYTQKSLSLSPGK has what Binding to FcγRIIIA (ELISA)?
1.1
